- ASSAY: Metabolic stability in rat liver homogenate assessed as half life at 1 mg/ml incubated for 48 hrs by HPLC analysis
- Assay type: ADME, tissue-based
QUANTITY_MEASURED: half-life at 1 mg/ml

SMILES: CCC(CC)CN1CCN(C(=O)Nc2cc(Oc3ccc(F)cc3)cc(Oc3ccc(C(=O)NC)cc3)c2)CC1
VALUE_OBSERVED: > 48 h

---

- Tested on: SW620/5-FU
- ASSAY: cells
- APPLIED_CONDITIONS: Homo sapiens, 48 h
IC50 overview

COMPOUND: CC(C)CC1(O)CCN(C(=O)Nc2cc(Oc3ccc(F)cc3)cc(Oc3ccc(C(C)(C)C(=O)O)cc3)c2)C1 (configuration not stated)
IC50: 364 µM
//
COMPOUND: CCC(CC)CN1CCN(C(=O)Nc2cc(Oc3ccc(F)cc3)cc(Oc3ccc(C(=O)NC)cc3)c2)CC1
IC50: 36.8 µM

---

- System: HT-29
- ASSAY: cells
- APPLIED_CONDITIONS: Homo sapiens, HT-29, 48 h
- Description: Reversal of 5-FU resistance in human HT-29 cells assessed as reduction in 5-Fluorouracil IC50 at 2 uM incubated for 48 hrs (Rvb = 2768.36 +/- 89.25 %)
pIC50: −log10 of the molar value.

MOLECULE: CC(C)CC1(O)CCN(C(=O)Nc2cc(Oc3ccc(F)cc3)cc(Oc3ccc(C(C)(C)C(=O)O)cc3)c2)C1 (configuration not stated)
pIC50: 3.79
//
MOLECULE: CCC(CC)CN1CCN(C(=O)Nc2cc(Oc3ccc(F)cc3)cc(Oc3ccc(C(=O)NC)cc3)c2)CC1
pIC50: 4.38

---

- ASSAY_TARGET: Sphingosine 1-phosphate receptor 4 (Homo sapiens)
- Sequence (O95977 whole entry): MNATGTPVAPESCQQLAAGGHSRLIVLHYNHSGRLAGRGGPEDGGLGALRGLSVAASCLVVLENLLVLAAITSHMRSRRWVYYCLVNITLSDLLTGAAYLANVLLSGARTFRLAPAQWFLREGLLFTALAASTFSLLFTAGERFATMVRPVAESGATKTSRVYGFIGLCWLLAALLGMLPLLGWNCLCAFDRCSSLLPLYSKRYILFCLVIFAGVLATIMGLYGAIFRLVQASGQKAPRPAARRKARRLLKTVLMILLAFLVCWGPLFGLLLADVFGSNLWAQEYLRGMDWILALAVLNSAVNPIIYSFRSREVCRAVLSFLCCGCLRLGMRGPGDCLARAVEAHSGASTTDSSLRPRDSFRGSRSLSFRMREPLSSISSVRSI
pKd: −log10 of the molar value.
pKd overview

SMILES: CCC(CC)CN1CCN(C(=O)Nc2cc(Oc3ccc(F)cc3)cc(Oc3ccc(C(=O)N4CCN(C)CC4)cc3)c2)CC1
pKd: < 7.00

SMILES: CCC(CC)CN1CCN(C(=O)Nc2cc(Oc3ccc(F)cc3)cc(Oc3ccc(C(=O)NC)cc3)c2)CC1
pKd: < 7.00

SMILES: CCC(CC)CN1CCN(C(=O)Nc2cc(Oc3ccncc3)cc(Oc3ccc(F)cc3)c2)CC1
pKd: < 7.00

SMILES: CCC(CC)CNC1CCN(C(=O)Nc2cc(Oc3ccncc3)cc(Oc3ccc(F)cc3)c2)CC1
pKd: < 7.00

SMILES: CCC(CC)CC1(O)CCN(C(=O)Nc2cc(Oc3ccncc3)cc(Oc3ccc(F)cc3)c2)CC1
pKd: < 7.00

SMILES: CNC(=O)c1ccc(Oc2cc(NC(=O)N3CCN(CC4CCCCC4)CC3)cc(Oc3ccc(F)cc3)c2)cc1
pKd: < 7.00

---

- ASSAY: Metabolic stability in human plasma assessed as compound remaining at 1 mg/ml measured after 48 hrs by HPLC analysis
- Type: ADME, cell-free
- APPLIED_CONDITIONS: read-out: Stability

SMILES: CCC(CC)CN1CCN(C(=O)Nc2cc(Oc3ccc(F)cc3)cc(Oc3ccc(C(=O)NC)cc3)c2)CC1
remaining at 48 h, 1 mg/ml: 96.4%

---

- ASSAY: Metabolic stability in rat liver homogenate assessed as compound remaining at 1 mg/ml measured after 48 hrs by HPLC analysis
- Type: ADME, tissue-based
- APPLIED_CONDITIONS: read-out: Stability
QUANTITY_MEASURED: remaining at 48 h, 1 mg/ml (%)

SMILES: CCC(CC)CN1CCN(C(=O)Nc2cc(Oc3ccc(F)cc3)cc(Oc3ccc(C(=O)NC)cc3)c2)CC1
VALUE_OBSERVED: 68.9
